The measurements presented in this section are drawn from ChEMBL document CHEMBL4265926.

Assignment: determine reported IC50 for the given molecules.
Test system: HepG2
MEASUREMENT DESCRIPTION: Cytotoxicity against human HepG2 cells after 48 hrs by MTT assay
Type: cell-based
CONDITIONS: HepG2, 48 h
Answers are plain numbers, in µM.

# batch size: 2; output IC50 per entry
1. CC(=O)NC[C@H]1CN(c2ccc(-c3ccc(/C=N/N4CCN(C(=O)CO)CC4)cc3)c(F)c2)C(=O)O1
2. CC(=O)NC[C@H]1CN(c2ccc(-c3ccc(/C=N/N4CCN(C)CC4)cc3)c(F)c2)C(=O)O1

Given back:
[4.66, 0.82]

----------
System: Enterococcus faecalis
MEASUREMENT DESCRIPTION: Antibacterial activity against linezolid-resistant Enterococcus faecalis clinical isolates by broth liquid microdilution method
Type: functional
PROPERTY MEASURED: MIC

Need MIC for each of these compounds.
1. CC(=O)NC[C@H]1CN(c2ccc(N3CCOCC3)c(F)c2)C(=O)O1
2. CC(=O)NC[C@H]1CN(c2ccc(-c3ccc(/C=N/N4CC[S+]([O-])CC4)cc3)c(F)c2)C(=O)O1
3. CC(=O)NC[C@H]1CN(c2ccc(-c3ccc(/C=N/N4CCN(C(=O)c5ccc(F)cc5)CC4)cc3)c(F)c2)C(=O)O1
4. CC(=O)NC[C@H]1CN(c2ccc(-c3ccc(/C=N/N4CCSCC4)cc3)c(F)c2)C(=O)O1
5. CC(=O)NC[C@H]1CN(c2ccc(-c3ccc(/C=N/N4CCNCC4)cc3)c(F)c2)C(=O)O1
6. CC(=O)NC[C@H]1CN(c2ccc(-c3ccc(/C=N/N4CCN(C)CC4)cc3)c(F)c2)C(=O)O1
7. CC(=O)NC[C@H]1CN(c2ccc(-c3ccc(/C=N/N4CCN(C(=O)CO)CC4)cc3)c(F)c2)C(=O)O1

Given back:
> 16 mg/L
0.0625 to 0.25 mg/L
0.0625 to 0.25 mg/L
0.0625 to 0.25 mg/L
0.0625 to 0.25 mg/L
0.0625 to 0.25 mg/L
0.0625 to 0.125 mg/L

----------
Give MIC for every item shown.
System: Staphylococcus aureus
MEASUREMENT DESCRIPTION: Antibacterial activity against methicillin-sensitive Staphylococcus aureus clinical isolates by broth liquid microdilution method
Assay type: functional

>>> result_value("CC(=O)NC[C@H]1CN(c2ccc(-c3ccc(/C=N/N4CCSCC4)cc3)c(F)c2)C(=O)O1")
"0.0625 to 0.25 µg/mL"
>>> result_value("CC(=O)NC[C@H]1CN(c2ccc(-c3ccc(/C=N/N4CC[S+]([O-])CC4)cc3)c(F)c2)C(=O)O1")
"0.0625 to 0.25 µg/mL"

Please find the next molecule below.
Record CC(=O)NC[C@H]1CN(c2ccc(-c3ccc(/C=N/N4CCN(C)CC4)cc3)c(F)c2)C(=O)O1 . Reported MIC: 0.0625 to 0.25 µg/mL

----------
Please respond with reported half-life at 1.5 µM for every item in the list.
MEASUREMENT DESCRIPTION: Half life in human liver microsomes at 1.5 uM in presence of NADPH by LC-MS analysis
Assay type: ADME, microsome
Numbers only, in h.

>>> result_value("CC(=O)NC[C@H]1CN(c2ccc(-c3ccc(/C=N/N4CCN(C(=O)CO)CC4)cc3)c(F)c2)C(=O)O1")
11.1

Continue with the compound presented below.
Short answer for CC(=O)NC[C@H]1CN(c2ccc(-c3ccc(/C=N/N4CCN(C)CC4)cc3)c(F)c2)C(=O)O1 : half-life at 1.5 µM was 1.21

----------
Test system: Enterococcus faecalis
MEASUREMENT DESCRIPTION: Antibacterial activity against linezolid-resistant Enterococcus faecalis clinical isolates by broth liquid microdilution method
Assay type: functional
PROPERTY MEASURED: MIC90 (µg/mL)
One number for each entry, in µg/mL.

Example entries begin here.
>>> result_value("CC(=O)NC[C@H]1CN(c2ccc(-c3ccc(/C=N/N4CCN(C(=O)c5ccc(F)cc5)CC4)cc3)c(F)c2)C(=O)O1")
0.25
>>> result_value("CC(=O)NC[C@H]1CN(c2ccc(-c3ccc(/C=N/N4CCN(C)CC4)cc3)c(F)c2)C(=O)O1")
0.125
>>> result_value("CC(=O)NC[C@H]1CN(c2ccc(-c3ccc(/C=N/N4CCSCC4)cc3)c(F)c2)C(=O)O1")
0.5
>>> result_value("CC(=O)NC[C@H]1CN(c2ccc(-c3ccc(/C=N/N4CC[S+]([O-])CC4)cc3)c(F)c2)C(=O)O1")
0.5

Give MIC90 for each of the items listed below.
1. CC(=O)NC[C@H]1CN(c2ccc(-c3ccc(/C=N/N4CCNCC4)cc3)c(F)c2)C(=O)O1
2. CC(=O)NC[C@H]1CN(c2ccc(-c3ccc(/C=N/N4CCN(C(=O)CO)CC4)cc3)c(F)c2)C(=O)O1

Given back:
[0.25, 0.25]

----------
MEASUREMENT DESCRIPTION: Stability in human liver microsomes assessed as parent compound remaining at 1.5 uM pretreated for 5 mins followed by NADPH addition measured after 45 mins by LC-MS analysis
Type: ADME, microsome
CONDITIONS: read-out: Stability
PROPERTY MEASURED: remaining at 0.75 h, 1.5 µM (%)
One number for each entry, in %.

Field: example entries. Status: answers known.
>>> result_value("CC(=O)NC[C@H]1CN(c2ccc(-c3ccc(/C=N/N4CCN(C(=O)CO)CC4)cc3)c(F)c2)C(=O)O1")
93.9
>>> result_value("CC(=O)NC[C@H]1CN(c2ccc(N3CCOCC3)c(F)c2)C(=O)O1")
104

Then there is this compound:
Looking up CC(=O)NC[C@H]1CN(c2ccc(-c3ccc(/C=N/N4CCN(C)CC4)cc3)c(F)c2)C(=O)O1 , I see its remaining at 0.75 h, 1.5 µM listed as 64.7

----------
TARGET OR SYSTEM: MAO-A (amine oxidase [flavin-containing] A) (Homo sapiens)
Sequence (P21397 whole entry): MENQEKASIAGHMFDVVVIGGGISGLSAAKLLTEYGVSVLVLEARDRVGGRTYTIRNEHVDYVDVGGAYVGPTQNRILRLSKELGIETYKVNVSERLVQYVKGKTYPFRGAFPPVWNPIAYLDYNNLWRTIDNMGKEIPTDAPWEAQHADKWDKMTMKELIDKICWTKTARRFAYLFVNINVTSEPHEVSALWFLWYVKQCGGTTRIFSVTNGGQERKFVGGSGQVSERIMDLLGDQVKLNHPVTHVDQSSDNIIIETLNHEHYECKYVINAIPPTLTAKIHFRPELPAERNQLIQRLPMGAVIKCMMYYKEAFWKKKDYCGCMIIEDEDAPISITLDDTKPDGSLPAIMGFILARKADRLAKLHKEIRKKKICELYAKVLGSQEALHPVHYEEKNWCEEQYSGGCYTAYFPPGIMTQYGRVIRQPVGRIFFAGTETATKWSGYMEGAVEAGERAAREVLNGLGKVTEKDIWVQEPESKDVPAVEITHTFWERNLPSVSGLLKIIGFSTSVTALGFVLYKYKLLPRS
MEASUREMENT DESCRIPTION: Inhibition of recombinant human MAOA expressed in baculovirus infected Sf9 insect cells at 30 uM using luciferin derived substrate pretreated for 15 mins followed by substrate addition and measured after 60 mins by luminescence assay relative to control
CONDITIONS: probe luciferin derived substrate
PROPERTY MEASURED: inhibition at 1 h, 30 µM (%)
Answers are plain numbers, in %.

>>> result_value("CC(=O)NC[C@H]1CN(c2ccc(-c3ccc(/C=N/N4CCNCC4)cc3)c(F)c2)C(=O)O1")
84
>>> result_value("CC(=O)NC[C@H]1CN(c2ccc(-c3ccc(/C=N/N4CCN(C)CC4)cc3)c(F)c2)C(=O)O1")
71
>>> result_value("CC(=O)NC[C@H]1CN(c2ccc(-c3ccc(/C=N/N4CCSCC4)cc3)c(F)c2)C(=O)O1")
81
>>> result_value("CC(=O)NC[C@H]1CN(c2ccc(-c3ccc(/C=N/N4CC[S+]([O-])CC4)cc3)c(F)c2)C(=O)O1")
88

// input: 3 molecules below; output: inhibition at 1 h, 30 µM for each
1. CC(=O)NC[C@H]1CN(c2ccc(-c3ccc(/C=N/N4CCN(C(=O)CO)CC4)cc3)c(F)c2)C(=O)O1
2. CC(=O)NC[C@H]1CN(c2ccc(-c3ccc(/C=N/N4CCN(C(=O)c5ccc(F)cc5)CC4)cc3)c(F)c2)C(=O)O1
3. CC(=O)NC[C@H]1CN(c2ccc(N3CCOCC3)c(F)c2)C(=O)O1

Given back:
[80, 89, 74]

----------
Tested on: Staphylococcus aureus
MEASUREMENT DESCRIPTION: Antibacterial activity against methicillin-sensitive Staphylococcus aureus clinical isolates by broth liquid microdilution method
Assay type: functional
Provide the reported MIC of each item.

Worked cases, MIC given:
>>> result_value("CC(=O)NC[C@H]1CN(c2ccc(-c3ccc(/C=N/N4CCN(C(=O)CO)CC4)cc3)c(F)c2)C(=O)O1")
"0.0625 to 0.125 µg/mL"
>>> result_value("CC(=O)NC[C@H]1CN(c2ccc(-c3ccc(/C=N/N4CCN(C(=O)c5ccc(F)cc5)CC4)cc3)c(F)c2)C(=O)O1")
"0.0625 to 0.25 µg/mL"

// input: 2 compounds below; output: MIC for each
1. CC(=O)NC[C@H]1CN(c2ccc(-c3ccc(/C=N/N4CCNCC4)cc3)c(F)c2)C(=O)O1
2. CC(=O)NC[C@H]1CN(c2ccc(N3CCOCC3)c(F)c2)C(=O)O1

Given back:
["0.0625 to 0.25 µg/mL", "1 to 2 µg/mL"]
